- STUDY_TARGET: human TGFßRII (antigen of the Octet experiments) (human, UniProt P37173 23-166)
- Sequence (P37173 23-166): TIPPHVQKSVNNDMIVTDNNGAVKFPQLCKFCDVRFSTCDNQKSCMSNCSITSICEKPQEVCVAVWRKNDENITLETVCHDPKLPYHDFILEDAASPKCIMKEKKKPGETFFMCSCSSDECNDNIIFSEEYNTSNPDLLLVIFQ
- ASSAY_INFO: BLI (Octet)
METRIC: pKd
Numbers only, as −log10 of the molar value.

| BINDER | pKd |
| --- | --- |
| H1 L1.29 XENP34592 (antibody, V domains shown) VH: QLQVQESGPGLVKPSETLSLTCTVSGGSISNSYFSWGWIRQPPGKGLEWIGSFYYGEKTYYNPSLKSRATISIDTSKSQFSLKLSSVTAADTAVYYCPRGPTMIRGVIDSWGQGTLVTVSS VL: EIVLTQSPATLSLSPGERATLSCRASQSVRSYLAWYQQKPGQAPRLLIYDASNRATGIPDRFSGSGSGTDFTLTISSLEPEDFAVYYCQQRSNWPPTFGQGTKVEIK | 9.23 |

# context switch: different binder, same pKd
Data request, read-out pKd, for H1 L1.37 XENP34600 (antibody, V domains shown) VH: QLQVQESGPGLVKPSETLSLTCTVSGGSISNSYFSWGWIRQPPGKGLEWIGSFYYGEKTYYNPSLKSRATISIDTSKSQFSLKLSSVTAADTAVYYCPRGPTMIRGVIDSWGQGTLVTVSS VL: EIVLTQSPATLSLSPGERATLSCRASQSVRSYLAWYQQKPGQAPRLLIYDASNRATGIPARFSGSGSGTDFTLTISSLEPEDFAVYYCQQKSNWPPTFGQGTKVEIK
8.54
